Test: ATG_TA_CIS: Attagene CIS-FACTORIAL HepG2 Assay for human TA Basal Promoter (AID 2282964)
Details: HepG2 Attagene CIS-factorial TA basal promoter reporter; actives raise or lower the signal
Description: ATG_CIS is a cell-based, multiplexed-readout assay that uses HepG2, a human liver cell line, with measurements taken at 24 hours after chemical dosing in a 24-well plate.ATG_TA_CIS is one of 52 assay component(s) measured or calculated from the ATG_CIS assay. […] This assay endpoint, ATG_TA_CIS, was analyzed with bidirectional fitting relative to DMSO as the negative control and baseline of activity. […]
Active and inactive are the calls of the source. The calls were made as follows: active = hit-call score of the fitted dose curve at least 0.9, where 1 is the maximum; inactive = score below 0.9.
Respond using exactly one of the listed classes: true = active, false = inactive

| compound | class-name |
| --- | --- |
| CC(=O)CCc1ccc2c(c1)OCO2 | false |
| N#C/C=C/c1ccccc1 | false |

Q: Check the results log: what was the call for CC(Cl)CN(C)C (stereo not given) ?
Ans: false

Q: Request: O=NN1CCCC1
Ans: false

Q: Request: COCCOCCO
Ans: false

Q: Request: OCC(F)(F)OC(F)(F)C(F)(F)OC(F)(F)C(F)(F)OC(F)(F)CO
Ans: false

Q: Request: Cc1ccc(N)cc1N
Ans: false

Q: Request: CCC1(c2ccccc2)C(=O)N=C(O)NC1=O (stereo not given)
Ans: false

Q: Request: OCC1CO1 (stereo not given)
Ans: false

Q: Request: Cc1cccc(N)c1
Ans: false

Q: Request: Cc1ccc(C(=O)Cl)cc1
Ans: false

Q: Request: CC(Cc1ccc(OCC(=O)O)cc1)NCC(O)c1csc(C(F)(F)F)n1 (stereo not given)
Ans: false

Q: Request: CC(=O)c1ccc(-c2ccccc2)cc1
Ans: false

Q: Request: C=CC(=O)OCC(F)(F)C(F)F
Ans: false

Q: Request: Cc1cc(C)c(C(=O)P(=O)(c2ccccc2)c2ccccc2)c(C)c1
Ans: true

Q: Request: CNC(=O)Oc1ccc(N(C)C)c(C)c1
Ans: false

Q: Request: CCCCOCCOP(=O)(OCCOCCCC)OCCOCCCC
Ans: false

Q: Request: OCC(F)(F)OC(F)(F)C(F)(F)OC(F)(F)C(F)(F)OC(F)(F)F
Ans: false

Q: Request: O=C(O)C(Cl)Cl
Ans: false

Q: Request: O=C(CBr)OCc1ccccc1
Ans: false

Q: Request: CCN(CC)C1CCCCC1
Ans: false

Where do these numbers come from? They come from PubChem BioAssay (EPA / NIEHS).
